Biological target: HLA-A*02:01 (Homo sapiens, UniProt P04439, D140Y/D185E/D98H/E176V/E277Q/G131W/G231S/I119V/I121R/I166T/I218V/L300P/L318F/N151K/N90K/P208A/P217A/Q86G/Q94H/R138H/R169H/T345S)
Experiment: MHC binding assay (UV-ligand exchange, β2m ELISA, peptide exchange yield)
Conditions: binding of HLA-class I restricted peptides to HLA-A*02:01, UV-ligand exchange
Text: Candidate peptides for T cell based therapies according to the present invention were further tested for their MHC binding capacity (affinity). The individual peptide-MHC complexes were produced by UV-ligand exchange, where a UV-sensitive peptide is cleaved upon UV-irradiation, and exchanged with the peptide of interest as analyzed. Only peptide candidates that can effectively bind and stabilize the peptide-receptive MHC molecules prevent dissociation of the MHC complexes. […]
OBSERVATION TYPE: Peptide exchange (MHC class I binding score, peptide exchange yield)

Examples with answers:
**Query** Answer with reported Peptide exchange (MHC class I binding score, peptide exchange yield) of 326 (FLPEALDFV; listed as Homo sapiens) [compound 326]
**Result** “+++” (≥50 = +++)

**Query** Please supply the value of reported Peptide exchange (MHC class I binding score, peptide exchange yield) for the item 546 (VMIAGKVAVV; listed as Homo sapiens) [compound 546]
**Result** “+++” (≥50 = +++)

**Query** Consider the substance 616 (VLIDEVESL; listed as Homo sapiens) [compound 616] . State its measured Peptide exchange (MHC class I binding score, peptide exchange yield).
**Result** “+++” (≥50 = +++)

**Query** Return Peptide exchange (MHC class I binding score, peptide exchange yield) (reported value) for this substance: 197 (ALGPEGGRV; listed as Homo sapiens) [compound 197]
**Result** “++” (≥20% = ++)

**Query** Kindly indicate its recorded Peptide exchange (MHC class I binding score, peptide exchange yield). Item: 479 (SLFGNSGILENV; listed as Homo sapiens) [compound 479]
**Result** “+++” (≥50 = +++)

New cases:
**Query** Consider the substance 181 (LLWAGTAFQV; listed as Homo sapiens) [compound 181] . State its measured Peptide exchange (MHC class I binding score, peptide exchange yield).
**Result** “+++” (≥50 = +++)

**Query** Specify Peptide exchange (MHC class I binding score, peptide exchange yield) for 199 (ALQDVPLSSV; listed as Homo sapiens) [compound 199] and stop.
**Result** “+++” (≥50 = +++)

**Query** Please look at this substance and report its Peptide exchange (MHC class I binding score, peptide exchange yield): 195 (GLFADLLPRL; listed as Homo sapiens) [compound 195]
**Result** “+++” (≥50 = +++)

---

Molecular target: HLA-A*02:01 (Homo sapiens, UniProt P04439, D140Y/D185E/D98H/E176V/E277Q/G131W/G231S/I119V/I121R/I166T/I218V/L300P/L318F/N151K/N90K/P208A/P217A/Q86G/Q94H/R138H/R169H/T345S)
Test: MHC binding assay (UV-ligand exchange, β2m ELISA, peptide exchange yield)
Conditions: binding of HLA-class I restricted peptides to HLA-A*02:01, UV-ligand exchange
OBSERVATION TYPE: Peptide exchange (MHC class I binding score, peptide exchange yield)

Take a look at these entries with their results.
**Query** Supply recorded Peptide exchange (MHC class I binding score, peptide exchange yield) for 188 (GLFPVTPEAV; listed as Homo sapiens) [compound 188] here.
**Result** “+++” (≥50 = +++)

**Query** For the substance 288 (NLINEINGV; listed as Homo sapiens) [compound 288] , give its measured Peptide exchange (MHC class I binding score, peptide exchange yield) value.
**Result** “+++” (≥50 = +++)

**Query** Kindly indicate its recorded Peptide exchange (MHC class I binding score, peptide exchange yield). Item: 385 (SLLEQGLVEA; listed as Homo sapiens) [compound 385]
**Result** “++” (≥20% = ++)

**Query** Report Peptide exchange (MHC class I binding score, peptide exchange yield) for 564 (TVTNAVVTV; listed as Homo sapiens) [compound 564]
**Result** “+++” (≥50 = +++)

**Query** Give the reported Peptide exchange (MHC class I binding score, peptide exchange yield) for this substance. 162 (YQQAQVPSV; listed as Homo sapiens) [compound 162]
**Result** “+++” (≥50 = +++)

**Query** Output Peptide exchange (MHC class I binding score, peptide exchange yield) of 131 (FVPPVTVFPSL; listed as Homo sapiens) [compound 131]
**Result** “++” (≥20% = ++)

API: the following record is the query input.
**Query** Fill in Peptide exchange (MHC class I binding score, peptide exchange yield) for record 379 (IMEGTLTRV; listed as Homo sapiens) [compound 379]
**Result** “++” (≥20% = ++)

Taken from patent US11230581B2.
